test target: human KDR on cells (human, UniProt P35968 20-1356)
Sequence (P35968 20-1356): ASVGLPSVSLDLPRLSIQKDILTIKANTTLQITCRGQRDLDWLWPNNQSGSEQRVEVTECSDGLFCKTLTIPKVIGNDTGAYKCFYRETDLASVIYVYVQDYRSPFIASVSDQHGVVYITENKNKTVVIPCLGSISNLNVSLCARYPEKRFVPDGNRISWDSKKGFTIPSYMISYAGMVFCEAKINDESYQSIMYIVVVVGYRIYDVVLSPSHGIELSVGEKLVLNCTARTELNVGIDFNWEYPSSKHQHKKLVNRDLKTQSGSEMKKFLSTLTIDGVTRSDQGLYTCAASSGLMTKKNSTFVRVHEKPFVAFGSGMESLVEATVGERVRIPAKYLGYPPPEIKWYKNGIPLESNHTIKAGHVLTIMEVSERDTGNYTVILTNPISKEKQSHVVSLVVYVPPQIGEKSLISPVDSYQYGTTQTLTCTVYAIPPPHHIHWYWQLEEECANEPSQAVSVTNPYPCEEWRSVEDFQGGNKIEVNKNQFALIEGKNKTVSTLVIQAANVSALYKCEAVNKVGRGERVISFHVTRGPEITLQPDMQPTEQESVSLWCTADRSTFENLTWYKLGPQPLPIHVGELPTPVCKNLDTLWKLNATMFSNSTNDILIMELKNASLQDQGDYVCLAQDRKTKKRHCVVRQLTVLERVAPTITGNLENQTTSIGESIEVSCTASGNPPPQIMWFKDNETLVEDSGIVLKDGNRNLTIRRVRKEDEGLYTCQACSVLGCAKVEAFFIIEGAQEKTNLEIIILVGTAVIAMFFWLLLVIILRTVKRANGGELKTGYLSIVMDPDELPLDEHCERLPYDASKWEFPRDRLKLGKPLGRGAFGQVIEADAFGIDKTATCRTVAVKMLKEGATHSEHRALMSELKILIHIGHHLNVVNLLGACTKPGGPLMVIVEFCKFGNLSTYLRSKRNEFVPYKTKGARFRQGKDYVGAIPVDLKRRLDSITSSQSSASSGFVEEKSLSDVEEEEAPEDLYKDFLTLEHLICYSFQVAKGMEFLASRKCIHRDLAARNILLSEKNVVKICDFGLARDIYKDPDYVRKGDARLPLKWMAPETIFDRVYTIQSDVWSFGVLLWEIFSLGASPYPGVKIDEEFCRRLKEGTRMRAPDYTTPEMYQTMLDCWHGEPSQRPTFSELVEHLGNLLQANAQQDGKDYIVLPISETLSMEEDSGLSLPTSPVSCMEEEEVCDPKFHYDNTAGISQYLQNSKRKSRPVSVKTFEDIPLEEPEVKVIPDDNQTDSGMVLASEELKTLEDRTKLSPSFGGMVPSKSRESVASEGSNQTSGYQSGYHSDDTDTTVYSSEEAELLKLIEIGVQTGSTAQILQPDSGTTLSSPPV
test name: cell-based or functional assay
Returns one of MET or NOT MET; MET when % Inhibition (N = 2) of VEGF-C-mediated KDR activity, antibody 1 nM is >= 30%.

Before answering, review these 2 worked examples.
binder: 24B3 (antibody, V domains shown, Purified fully human monoclonal antibody from XenoMouse hybridoma (IgG2 or IgG4 strains); also called MAb 24B3) VH: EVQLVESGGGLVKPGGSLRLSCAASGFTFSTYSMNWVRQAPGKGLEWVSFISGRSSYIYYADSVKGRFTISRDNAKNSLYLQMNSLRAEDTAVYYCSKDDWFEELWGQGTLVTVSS VL: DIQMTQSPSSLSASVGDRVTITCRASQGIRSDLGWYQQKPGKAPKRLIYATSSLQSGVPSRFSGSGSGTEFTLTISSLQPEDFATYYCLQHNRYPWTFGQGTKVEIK
group: MET
--
binder: 27A3 (antibody, V domains shown) VH: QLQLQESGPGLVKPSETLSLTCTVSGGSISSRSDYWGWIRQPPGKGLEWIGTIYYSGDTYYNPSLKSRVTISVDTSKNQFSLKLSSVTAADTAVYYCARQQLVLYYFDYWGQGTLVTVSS VL: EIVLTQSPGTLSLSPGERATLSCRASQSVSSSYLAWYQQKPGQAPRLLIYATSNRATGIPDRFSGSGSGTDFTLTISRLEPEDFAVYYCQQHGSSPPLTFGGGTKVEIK
group: MET

Exercise: Hello, I need to know if 22B8 (antibody, V domains shown) VH: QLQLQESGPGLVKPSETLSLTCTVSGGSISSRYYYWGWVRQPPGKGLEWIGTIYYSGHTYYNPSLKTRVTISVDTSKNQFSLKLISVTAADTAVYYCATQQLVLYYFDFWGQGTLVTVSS VL: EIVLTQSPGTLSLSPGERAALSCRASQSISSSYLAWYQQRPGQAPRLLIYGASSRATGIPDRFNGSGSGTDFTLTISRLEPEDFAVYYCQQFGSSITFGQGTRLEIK has measured % Inhibition (N = 2) of VEGF-C-mediated KDR activity, antibody 1 nM not below 30%. Thanks!
Solution: NOT MET

Exercise: Textbook exercise: given the entry 31E11 (antibody, V domains shown) VH: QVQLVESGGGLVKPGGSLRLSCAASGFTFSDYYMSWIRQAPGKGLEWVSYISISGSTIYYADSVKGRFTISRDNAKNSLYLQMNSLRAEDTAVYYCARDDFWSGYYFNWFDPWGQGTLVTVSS VL: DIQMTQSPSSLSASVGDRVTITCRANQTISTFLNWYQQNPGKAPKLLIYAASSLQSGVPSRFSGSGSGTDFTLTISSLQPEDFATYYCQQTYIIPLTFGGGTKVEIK , state whether its % Inhibition (N = 2) of VEGF-C-mediated KDR activity, antibody 1 nM is greater than or equal to 30%.
Solution: MET

Exercise: Would you say 33B1 (antibody, V domains shown) VH: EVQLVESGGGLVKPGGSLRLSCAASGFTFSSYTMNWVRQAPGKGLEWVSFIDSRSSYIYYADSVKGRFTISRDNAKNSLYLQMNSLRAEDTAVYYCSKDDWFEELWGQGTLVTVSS VL: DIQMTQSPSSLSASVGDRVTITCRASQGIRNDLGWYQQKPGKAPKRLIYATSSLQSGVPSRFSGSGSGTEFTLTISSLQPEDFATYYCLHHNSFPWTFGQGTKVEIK shows % Inhibition (N = 2) of VEGF-C-mediated KDR activity, antibody 1 nM at minimum 30%?
Solution: MET
